Target: IDO1 (Homo sapiens, UniProt P14902)
Sequence (P14902 whole entry): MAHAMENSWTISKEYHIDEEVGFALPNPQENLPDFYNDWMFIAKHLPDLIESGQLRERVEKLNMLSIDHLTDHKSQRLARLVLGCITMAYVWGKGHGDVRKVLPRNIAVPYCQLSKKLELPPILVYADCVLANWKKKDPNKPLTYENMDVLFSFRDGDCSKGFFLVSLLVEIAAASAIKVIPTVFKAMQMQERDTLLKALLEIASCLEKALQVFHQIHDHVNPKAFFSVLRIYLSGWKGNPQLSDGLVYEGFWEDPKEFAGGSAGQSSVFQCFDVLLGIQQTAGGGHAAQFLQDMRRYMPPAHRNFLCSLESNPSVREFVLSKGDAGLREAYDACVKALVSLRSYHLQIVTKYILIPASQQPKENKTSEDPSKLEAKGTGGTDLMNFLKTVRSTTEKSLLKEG
Assay: IDO1 cellular assay in Hela cells stimulated with IFNγ
Assay type: cell-based
Settings: IFNγ 100 ng/mL, 300 uM L-tryptophan, about 48 hours, fluorescence readout
In this section, each of the molecules is paired with its reported IC50.

{"STRUCTURE": "O=C(Nc1ccc(C2(NC(=O)c3ccc(Cl)nc3)CCC2)nc1)c1ccnc(C(F)(F)F)c1", "IC50": "469 nM"}
{"STRUCTURE": "N#Cc1cccc(C(=O)Nc2ccc(C3(C(=O)Nc4ccc(F)cc4)CCC3)nc2O)c1", "IC50": "540 nM"}
{"STRUCTURE": "O=C(Nc1ccc(C2(C(=O)Nc3ccc(F)nc3)CCC2)cn1)C1CCCCC1", "IC50": "25 nM"}
{"STRUCTURE": "N#C[C@@H]1CCC[C@@H](C(=O)Nc2ccc(C3(C(=O)Nc4ccc(F)cc4)CCC3)cn2)C1", "IC50": "236 nM"}
{"STRUCTURE": "O=C(NC1(c2ccc(NC(=O)c3ncccn3)cn2)CCC1)c1ccc(Cl)nc1", "IC50": "1700 nM"}
{"STRUCTURE": "O=C(CC1CC1)Nc1ccc(C2(C(=O)Nc3ccc(F)cc3)CCC2)cn1", "IC50": "83 nM"}

Which measured IC50 value corresponds to "O=C(Nc1ccc(C2(NC(=O)c3ccc(Cl)nc3)CCC2)nc1)c1cccc(F)c1" ?
20 nM

# iterate: "O=C(Nc1ccc(C2(C(=O)Nc3ccc(F)cn3)CCC2)cn1)c1cncc(Cl)c1"
104 nM

# iterate: "CC(C)CC(=O)Nc1ccc(C2(C(=O)Nc3ccc(F)cc3)CCC2)cn1"
25 nM

# iterate: "CCCNC(=O)C1(c2ccc(NC(=O)c3cccc(Cl)c3)nc2)CCC1"
151 nM

# iterate: "O=C(Nc1ccc(C2(C(=O)Nc3ccc(F)cc3)CCC2)cn1)c1c(F)ccc(Cl)c1F"
94 nM

# iterate: "O=C(Nc1ccc(C2(C(=O)NCCC(F)(F)F)CCC2)cn1)c1cccc(Cl)c1"
3 nM

# iterate: "O=C(Nc1ccc(C2(NC(=O)c3ccc(Cl)nc3)CCC2)nc1)c1cc(F)cc(F)c1"
9 nM
